Tested on: SF-539
Experiment: NCI-60 screen (SRB), CNS cancer
Settings: Homo sapiens, SF-539
PROPERTY LABEL: IC50 (nM)
Field: numeric (nM). Do not append units.

Sample answers from the record:
[
  {
    "MOLECULE": "COc1cc(OC)c(S(=O)(=O)N(CCCl)CCCl)cc1C(=O)/C=C/c1cc(OC)c(OC)c(OC)c1 [Compound 18e]",
    "UNIT SPEC": "nM",
    "IC50": 3610
  },
  {
    "MOLECULE": "COc1cc(OC)c(S(N)(=O)=O)cc1C(=O)/C=C/c1ccc(C)cc1 [Compound 17c]",
    "UNIT SPEC": "nM",
    "IC50": 2170
  },
  {
    "MOLECULE": "COc1cc(OC)c(S(N)(=O)=O)cc1C(=O)/C=C/c1ccc(Cl)cc1 [Compound 17b]",
    "UNIT SPEC": "nM",
    "IC50": 2140
  }
]

Value of measured IC50 for the entry COc1cc(OC)c(S(N)(=O)=O)cc1C(=O)C=Cc1ccccc1 [Compound 17a] : 2440

---

Listing of entries alongside the reported CC50.
Test system: NCI-H226
Assay: NCI-60 screen (SRB), non-small cell lung cancer
Conditions: Homo sapiens, NCI-H226, read-out: LC50
Field: numeric (µM). Do not append units.

[
  {
    "MOLECULE": "COc1cc(OC)c(S(N)(=O)=O)cc1C(=O)/C=C/c1ccc(C)cc1 [Compound 17c]",
    "ASSAY SYSTEM": "NCI-H226",
    "REPORTED RESULT": 90.8
  }
]

Field CC50 (NCI-H226), entry COc1cc(OC)c(S(N)(=O)=O)cc1C(=O)C=Cc1ccccc1 [Compound 17a] : 69.2

---

System: MDA-MB-231/ATCC
Test: NCI-60 screen (SRB), breast cancer
Settings: Homo sapiens, MDA-MB-231, read-out: LC50
PROPERTY LABEL: CC50 (µM)
Field: numeric (µM). Do not append units.

Field CC50 (MDA-MB-231/ATCC), entry COc1cc(OC)c(S(N)(=O)=O)cc1C(=O)/C=C/c1ccc(C)cc1 [Compound 17c] : 60

Field CC50 (MDA-MB-231/ATCC), entry COc1cc(OC)c(S(N)(=O)=O)cc1C(=O)C=Cc1ccccc1 [Compound 17a] : 61.6

---

Tested on: TK-10
Experiment: NCI-60 screen (SRB), renal cancer
Details: Homo sapiens, TK-10
PROPERTY LABEL: IC50 (µM)
Field: numeric (µM). Do not append units.

[
  {
    "COMPOUND": "COc1cc(OC)c(S(N)(=O)=O)cc1C(=O)C=Cc1ccccc1 [Compound 17a]",
    "IC50, µM": 12.9
  }
]

Field IC50 (TK-10), entry COc1cc(OC)c(S(N)(=O)=O)cc1C(=O)/C=C/c1ccc(Cl)cc1 [Compound 17b] : 2.91

Field IC50 (TK-10), entry COc1cc(OC)c(S(=O)(=O)N(CCCl)CCCl)cc1C(=O)/C=C/c1cc(OC)c(OC)c(OC)c1 [Compound 18e] : 75

Field IC50 (TK-10), entry COc1cc(OC)c(S(N)(=O)=O)cc1C(=O)/C=C/c1ccc(C)cc1 [Compound 17c] : 3.41
